Target protein (sequence): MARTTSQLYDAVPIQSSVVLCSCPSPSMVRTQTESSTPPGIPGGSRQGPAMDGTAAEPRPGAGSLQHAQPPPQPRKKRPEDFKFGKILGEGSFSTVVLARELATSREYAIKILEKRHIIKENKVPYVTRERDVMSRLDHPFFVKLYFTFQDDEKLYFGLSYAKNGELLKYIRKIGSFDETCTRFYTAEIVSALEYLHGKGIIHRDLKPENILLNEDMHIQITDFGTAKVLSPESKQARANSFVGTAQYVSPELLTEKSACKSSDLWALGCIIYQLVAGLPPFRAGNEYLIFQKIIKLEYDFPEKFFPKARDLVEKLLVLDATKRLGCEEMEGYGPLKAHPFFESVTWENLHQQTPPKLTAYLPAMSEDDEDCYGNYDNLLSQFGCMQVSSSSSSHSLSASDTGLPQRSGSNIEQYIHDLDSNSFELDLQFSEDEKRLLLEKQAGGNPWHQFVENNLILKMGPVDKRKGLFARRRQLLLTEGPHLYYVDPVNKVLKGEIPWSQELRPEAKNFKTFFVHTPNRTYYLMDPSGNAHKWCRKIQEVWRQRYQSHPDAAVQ
pIC50: −log10 of the molar value.
Experimental Endpoint: pIC50

Q: Recorded pIC50 for COc1cc2nccc(Oc3ccc(NC(=S)NC4CC4)c(Cl)c3F)c2cc1C(N)=O , please?
Result: < 5.00

====

Procedure Text: Pharmacokinetic study in rats
Assay type: in vivo
Setup Conditions: both, Sprague-Dawley, rat, plasma, po, 50 mg/kg/day
Experimental Endpoint: AUC(0-t) (µM·h)
Report as a plain number; the unit µM·h is understood.

Q: Recorded AUC(0-t) for COc1cc2nccc(Oc3ccc(NC(=S)NC4CC4)c(Cl)c3F)c2cc1C(N)=O [WXFL-152] , please?
Result: 160

====

Subject Of Test: VEGFR2 (Homo sapiens)
Sequence (P35968 20-1356): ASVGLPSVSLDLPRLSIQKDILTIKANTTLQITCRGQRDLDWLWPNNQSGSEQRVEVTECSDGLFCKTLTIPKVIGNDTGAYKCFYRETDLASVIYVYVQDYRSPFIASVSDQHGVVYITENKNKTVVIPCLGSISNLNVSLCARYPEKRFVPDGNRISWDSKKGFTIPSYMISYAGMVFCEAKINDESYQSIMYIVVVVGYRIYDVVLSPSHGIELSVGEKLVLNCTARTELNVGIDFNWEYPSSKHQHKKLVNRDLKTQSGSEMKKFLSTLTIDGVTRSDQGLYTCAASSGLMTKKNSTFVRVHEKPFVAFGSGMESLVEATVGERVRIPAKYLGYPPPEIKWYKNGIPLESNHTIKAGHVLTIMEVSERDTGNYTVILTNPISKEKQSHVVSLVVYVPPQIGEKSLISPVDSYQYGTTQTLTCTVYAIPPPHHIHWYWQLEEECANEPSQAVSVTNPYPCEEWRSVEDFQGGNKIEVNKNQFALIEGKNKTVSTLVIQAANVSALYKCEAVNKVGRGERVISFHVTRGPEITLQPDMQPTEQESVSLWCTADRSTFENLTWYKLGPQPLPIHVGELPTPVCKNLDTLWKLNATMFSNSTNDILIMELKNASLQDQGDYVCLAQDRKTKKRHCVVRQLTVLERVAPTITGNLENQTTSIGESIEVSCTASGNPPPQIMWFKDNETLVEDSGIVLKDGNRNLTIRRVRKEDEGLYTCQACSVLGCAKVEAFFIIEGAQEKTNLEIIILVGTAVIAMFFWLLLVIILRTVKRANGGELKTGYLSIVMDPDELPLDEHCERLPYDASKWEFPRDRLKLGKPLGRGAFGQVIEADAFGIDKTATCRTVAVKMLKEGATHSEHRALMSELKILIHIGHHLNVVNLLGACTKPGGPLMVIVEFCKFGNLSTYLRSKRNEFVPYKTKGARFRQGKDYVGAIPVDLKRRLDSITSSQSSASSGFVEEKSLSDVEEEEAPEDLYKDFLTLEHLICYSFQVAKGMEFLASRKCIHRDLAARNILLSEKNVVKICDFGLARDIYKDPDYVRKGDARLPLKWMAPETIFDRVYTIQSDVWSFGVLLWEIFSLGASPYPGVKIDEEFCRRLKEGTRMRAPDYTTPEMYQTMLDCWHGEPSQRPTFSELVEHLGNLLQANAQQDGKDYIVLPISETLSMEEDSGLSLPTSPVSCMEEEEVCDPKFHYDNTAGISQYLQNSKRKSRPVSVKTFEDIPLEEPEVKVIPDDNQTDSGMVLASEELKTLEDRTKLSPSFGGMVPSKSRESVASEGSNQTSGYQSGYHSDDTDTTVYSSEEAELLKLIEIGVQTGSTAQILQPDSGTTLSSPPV
Experimental Endpoint: pIC50
As a rule, pIC50 stands for the negative log10 of the concentration, concentration in M.

The examples below pair each entry with its known result.
O=C1NCOc2cc3nccc(Oc4ccc(NC(=S)NC5CC5)c(Cl)c4)c3cc21 ... 6.64
COc1cc2nccc(Oc3ccc(NC(=S)NC4CC4)c(Cl)c3)c2cc1C(N)=O ... 8.03

Q: Recorded pIC50 for COc1cc2nccc(Oc3ccc(NC(N)=S)c(Cl)c3)c2cc1C(N)=O , please?
Result: 7.49

====

Subject Of Test: UniProtKB Q9UL54
Sequence (Q9UL54 whole entry): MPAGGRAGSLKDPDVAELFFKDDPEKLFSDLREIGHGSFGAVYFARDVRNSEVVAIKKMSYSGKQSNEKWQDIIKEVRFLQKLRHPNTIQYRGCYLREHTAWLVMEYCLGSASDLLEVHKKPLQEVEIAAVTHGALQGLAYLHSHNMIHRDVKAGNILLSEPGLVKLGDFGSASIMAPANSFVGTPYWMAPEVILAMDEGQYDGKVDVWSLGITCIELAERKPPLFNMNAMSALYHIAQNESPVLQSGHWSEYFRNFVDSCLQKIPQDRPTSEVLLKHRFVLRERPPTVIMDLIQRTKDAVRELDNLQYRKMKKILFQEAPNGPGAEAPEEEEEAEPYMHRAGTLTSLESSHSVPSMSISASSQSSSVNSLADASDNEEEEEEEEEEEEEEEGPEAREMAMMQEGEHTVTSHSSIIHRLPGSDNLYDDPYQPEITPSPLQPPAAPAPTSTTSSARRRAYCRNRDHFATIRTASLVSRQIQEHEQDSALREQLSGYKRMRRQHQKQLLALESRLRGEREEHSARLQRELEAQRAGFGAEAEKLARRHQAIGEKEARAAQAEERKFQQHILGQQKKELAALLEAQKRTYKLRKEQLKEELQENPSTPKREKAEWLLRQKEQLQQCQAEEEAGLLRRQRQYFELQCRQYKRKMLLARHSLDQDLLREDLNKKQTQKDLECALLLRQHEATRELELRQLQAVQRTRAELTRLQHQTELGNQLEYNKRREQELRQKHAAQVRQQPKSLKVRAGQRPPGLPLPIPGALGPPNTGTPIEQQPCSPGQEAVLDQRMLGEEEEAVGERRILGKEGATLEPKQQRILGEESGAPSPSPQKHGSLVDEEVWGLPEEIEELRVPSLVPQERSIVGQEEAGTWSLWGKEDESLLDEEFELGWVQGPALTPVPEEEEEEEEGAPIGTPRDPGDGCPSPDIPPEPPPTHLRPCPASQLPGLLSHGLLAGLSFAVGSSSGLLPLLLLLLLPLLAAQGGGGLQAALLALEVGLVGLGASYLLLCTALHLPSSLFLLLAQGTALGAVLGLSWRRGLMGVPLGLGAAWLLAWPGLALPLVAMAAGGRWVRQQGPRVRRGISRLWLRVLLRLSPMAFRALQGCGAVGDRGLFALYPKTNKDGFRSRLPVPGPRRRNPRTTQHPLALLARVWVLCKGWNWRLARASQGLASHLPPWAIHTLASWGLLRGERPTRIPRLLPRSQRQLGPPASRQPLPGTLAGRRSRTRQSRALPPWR
pIC50: −log10 of the molar value.
Experimental Endpoint: pIC50

Q: Recorded pIC50 for COc1cc2nccc(Oc3ccc(NC(=S)NC4CC4)c(Cl)c3F)c2cc1C(N)=O [WXFL-152] , please?
Result: < 5.00

====

Procedure Text: Pharmacokinetic study in rats
Format: in vivo
Setup Conditions: both, Sprague-Dawley, rat, plasma, iv, 3 mg/kg
Experimental Endpoint: Cmax (µM)
Report as a plain number; the unit µM is understood.

Q: Recorded Cmax for COc1cc2nccc(Oc3ccc(NC(=S)NC4CC4)c(Cl)c3F)c2cc1C(N)=O , please?
Result: 40.4

====

Subject Of Test: CHK1 (Homo sapiens, UniProt O14757)
Sequence (O14757 1-476): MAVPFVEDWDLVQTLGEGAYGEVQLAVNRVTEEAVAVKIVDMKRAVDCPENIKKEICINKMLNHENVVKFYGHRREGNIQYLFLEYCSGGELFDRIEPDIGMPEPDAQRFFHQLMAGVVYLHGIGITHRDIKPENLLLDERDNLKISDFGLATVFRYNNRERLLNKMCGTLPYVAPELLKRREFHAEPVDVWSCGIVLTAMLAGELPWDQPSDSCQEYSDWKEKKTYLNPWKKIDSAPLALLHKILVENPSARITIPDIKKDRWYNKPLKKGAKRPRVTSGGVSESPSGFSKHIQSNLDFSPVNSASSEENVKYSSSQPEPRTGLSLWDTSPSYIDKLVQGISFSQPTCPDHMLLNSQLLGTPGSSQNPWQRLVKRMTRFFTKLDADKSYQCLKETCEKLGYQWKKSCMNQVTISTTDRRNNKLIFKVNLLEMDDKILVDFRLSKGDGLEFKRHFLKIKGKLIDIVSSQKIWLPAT
Experimental Endpoint: IC50

Q: Recorded IC50 for COc1cc2nccc(Oc3ccc(NC(=S)NC4CC4)c(Cl)c3F)c2cc1C(N)=O , please?
Result: > 10 µM
